tested on: Triticum aestivum (TRZAS); test: D. Pre-emergence effect on useful plants, TRZAS; type: in vivo; settings: useful plant, application rate 80 g/ha
Reported Pre-emergence efficacy against TRZAS in % values follow for various compounds
readout.name: Pre-emergence efficacy against TRZAS in %

>>> val("C=CCCS(=O)(=O)Oc1c(F)cccc1Oc1ncc(Cl)cn1 [Example I-50]")
"0%"
>>> val("O=S(=O)(CCCCl)Oc1ccccc1Oc1ncc(Cl)cn1 [Example I-2]")
"0%"
>>> val("CCCCCS(=O)(=O)Oc1ccccc1Oc1ncc(Cl)cn1 [Example I-24]")
"0%"
>>> val("Cc1cccc(OS(=O)(=O)CCCCl)c1Oc1ncc(Cl)cn1 [Example I-12]")
"0%"
>>> val("O=S(=O)(CCC1CC1)Oc1c(F)cccc1Oc1ncc(Cl)cn1 [Example I-55]")
"0%"
>>> val("CCCS(=O)(=O)Oc1ccccc1Oc1ncc(Cl)cn1 [Example I-3]")
"10%"
>>> val("N#Cc1cccc(Oc2ncc(Cl)cn2)c1OS(=O)(=O)CC1CC1(Cl)Cl (stereo not shown) [Example I-78]")
"0%"
>>> val("O=S(=O)(CCC(F)(F)F)Oc1c(Cl)cccc1Oc1ncc(Cl)cn1 [Example I-38]")
"0%"
>>> val("O=S(=O)(CC=C(Cl)Cl)Oc1c(F)cccc1Oc1ncc(Cl)cn1 [Example I-85]")
"0%"
>>> val("O=S(=O)(CCC(F)(F)F)Oc1ccccc1Oc1ncc(Cl)cn1 [Example I-8]")
"20%"
>>> val("O=S(=O)(CCCC(F)(F)C(F)(F)F)Oc1c(F)cccc1Oc1ncc(Cl)cn1 [Example I-68]")
"0%"
>>> val("O=S(=O)(CCCC(F)(F)F)Oc1c(F)cccc1Oc1ncc(Br)cn1 [Example I-41]")
"20%"
>>> val("O=S(=O)(CC1CC1)Oc1ccccc1Oc1ncc(Cl)cn1 [Example I-23]")
"0%"
>>> val("Cc1cccc(Oc2ncc(Cl)cn2)c1OS(=O)(=O)CC1CC(F)(F)C1 [Example I-74]")
"0%"
>>> val("C=CCS(=O)(=O)Oc1ccccc1Oc1ncc(Cl)cn1 [Example I-36]")
"0%"
>>> val("Cc1cccc(Oc2ncc(Cl)cn2)c1OS(=O)(=O)CCC(F)=C(F)F [Example I-71]")
"0%"
>>> val("CC(C)CCS(=O)(=O)Oc1ccccc1Oc1ncc(Cl)cn1 [Example I-25]")
"0%"
>>> val("O=S(=O)(CCC(F)(F)F)Oc1c(Br)cccc1Oc1ncc(F)cn1 [Example I-43]")
"0%"
>>> val("O=S(=O)(CCl)Oc1ccccc1Oc1ncc(Cl)cn1 [Example I-9]")
"20%"

###

Reported Pre-emergence efficacy against KCHSC in % values follow for various compounds
system: Kochia scoparia (KCHSC); assay: C. Herbicidal pre-emergence efficacy, KCHSC; format: in vivo; conditions: application rate 80 g/ha
readout.name: Pre-emergence efficacy against KCHSC in % (%)

>>> val("O=S(=O)(CCCC(F)F)Oc1c(F)cccc1Oc1ncc(Cl)cn1 [Example I-56]")
100
>>> val("O=S(=O)(CCC(F)(F)F)Oc1c(F)cccc1Oc1ncc(Cl)cn1 [Example I-48]")
100
>>> val("N#Cc1cccc(Oc2ncc(Cl)cn2)c1OS(=O)(=O)CC1CC1(Cl)Cl (stereo not drawn) [Example I-78]")
100
>>> val("C=CCCS(=O)(=O)Oc1c(F)cccc1Oc1ncc(Cl)cn1 [Example I-50]")
90
>>> val("O=S(=O)(CCCC(F)(F)C(F)(F)F)Oc1c(F)cccc1Oc1ncc(Cl)cn1 [Example I-68]")
100
>>> val("O=S(=O)(CCC1CC1)Oc1c(F)cccc1Oc1ncc(Cl)cn1 [Example I-55]")
80
>>> val("O=S(=O)(CCCC(F)(F)F)Oc1c(Cl)cccc1Oc1ncc(Br)cn1 [Example I-34]")
90
>>> val("O=S(=O)(CCCC(F)(F)F)Oc1c(F)cccc1Oc1ncc(F)cn1 [Example I-42]")
100
>>> val("O=S(=O)(CCC(F)(F)F)Oc1c(F)cccc1Oc1ncc(F)cn1 [Example I-47]")
100
